- TARGET_OR_SYSTEM: human plasma DPP-IV (Homo sapiens, UniProt P27487)
- Construct: DPP-IV activity in human and rat plasma
- Sequence (P27487 39-766 limits assumed): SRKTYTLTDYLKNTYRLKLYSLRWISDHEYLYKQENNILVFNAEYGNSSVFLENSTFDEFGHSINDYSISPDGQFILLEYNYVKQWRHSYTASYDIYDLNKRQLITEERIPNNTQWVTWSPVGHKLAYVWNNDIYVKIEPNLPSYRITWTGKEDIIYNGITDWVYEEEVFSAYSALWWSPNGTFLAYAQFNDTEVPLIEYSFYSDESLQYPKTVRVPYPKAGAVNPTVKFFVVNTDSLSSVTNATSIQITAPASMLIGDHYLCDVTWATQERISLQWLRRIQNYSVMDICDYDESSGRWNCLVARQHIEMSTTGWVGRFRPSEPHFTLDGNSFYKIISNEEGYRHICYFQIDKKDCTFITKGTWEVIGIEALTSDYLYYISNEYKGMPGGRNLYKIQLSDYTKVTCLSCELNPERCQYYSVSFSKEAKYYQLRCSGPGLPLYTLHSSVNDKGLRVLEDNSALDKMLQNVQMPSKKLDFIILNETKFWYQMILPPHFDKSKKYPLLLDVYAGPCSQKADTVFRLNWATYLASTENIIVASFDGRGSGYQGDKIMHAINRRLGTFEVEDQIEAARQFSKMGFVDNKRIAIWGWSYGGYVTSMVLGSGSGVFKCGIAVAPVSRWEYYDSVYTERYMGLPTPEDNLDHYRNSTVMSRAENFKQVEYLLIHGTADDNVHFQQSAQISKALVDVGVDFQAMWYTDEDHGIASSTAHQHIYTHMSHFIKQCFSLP
- ASSAY_TEXT: human plasma DPP-IV inhibition assay
- STUDY_CONDITIONS: H-Glycine-Proline-AMC substrate, pH 7.8, room temperature, 20 min
pIC50: −log10 of the molar value. Structures can show the parent of a compound that is named as a salt.
READOUT_LABEL: pIC50

molecule="CC(C)OCCCNCC(=O)N1CCC[C@H]1C#N [Ex. 12, monohydrochloride]" recorded_value=7.02
molecule="COc1ccc(CCNCC(=O)N2CCC[C@H]2C#N)cc1 [Ex. 18, monohydrochloride]" recorded_value=6.80
molecule="CCOc1ccc(CCNCC(=O)N2CCC[C@H]2C#N)cc1 [Ex. 16, monohydrochloride]" recorded_value=6.77
molecule="N#C[C@@H]1CCCN1C(=O)CNC1CCN(Cc2ccccc2)CC1 [Ex. 66, monohydrochloride]" recorded_value=6.89
molecule="COc1ccc(OC)c(CCNCC(=O)N2CCC[C@H]2C#N)c1 [Ex. 26, monohydrochloride]" recorded_value=6.62
molecule="COc1ccc(CCNCC(=O)N2CCC[C@H]2C#N)cc1OC [Ex. 23, monohydrochloride]" recorded_value=7.40

====

- TARGET_OR_SYSTEM: human plasma DPP-IV (Homo sapiens)
- Construct: DPP-IV activity in human and rat plasma
- ASSAY_TEXT: human plasma DPP-IV inhibition assay
- STUDY_CONDITIONS: H-Glycine-Proline-AMC substrate, pH 7.8, room temperature, 20 min
pIC50: −log10 of the molar value. Where a name gives a salt, the structure may show the parent alone.
Known pIC50 of a selection of compounds
READOUT_LABEL: pIC50

compound="COc1ccccc1CCNCC(=O)N1CCC[C@H]1C#N [Ex. 36, monohydrochloride]" target_or_system="human plasma DPP-IV (Homo sapiens)" recorded_value=6.77
compound="N#C[C@@H]1CCCN1C(=O)CNCCc1ccc(Cl)cc1Cl [Ex. 39, monohydrochloride]" target_or_system="human plasma DPP-IV (Homo sapiens)" recorded_value=6.66
compound="CC1(C)C2CCC(CNCC(=O)N3CCC[C@H]3C#N)C1C2 (single isomer, unassigned) [Ex. 25, monohydrochloride]" target_or_system="human plasma DPP-IV (Homo sapiens)" recorded_value=6.96
compound="COc1cccc(CCNCC(=O)N2CCC[C@H]2C#N)c1 [Ex. 19, monohydrochloride]" target_or_system="human plasma DPP-IV (Homo sapiens)" recorded_value=6.74
compound="N#C[C@@H]1CCCN1C(=O)CNCCc1ccccc1F [Ex. 42, monohydrochloride]" target_or_system="human plasma DPP-IV (Homo sapiens)" recorded_value=6.85
compound="N#C[C@@H]1CCCN1C(=O)CNCCCN1CCCC1=O [Ex. 14, monohydrochloride]" target_or_system="human plasma DPP-IV (Homo sapiens)" recorded_value=7.02
compound="N#C[C@@H]1CCCN1C(=O)CNCCC1=CCCCC1 [Ex. 27, monohydrochloride]" target_or_system="human plasma DPP-IV (Homo sapiens)" recorded_value=6.82
compound="N#C[C@@H]1CCCN1C(=O)CNCc1ccccc1Sc1ccccc1CO [Ex. 35, monohydrochloride]" target_or_system="human plasma DPP-IV (Homo sapiens)" recorded_value=5.96

====

- TARGET_OR_SYSTEM: rat plasma DPP-IV (Rattus norvegicus, UniProt P14740)
- Construct: DPP-IV activity in human and rat plasma
- Sequence (P14740 37-767 limits assumed): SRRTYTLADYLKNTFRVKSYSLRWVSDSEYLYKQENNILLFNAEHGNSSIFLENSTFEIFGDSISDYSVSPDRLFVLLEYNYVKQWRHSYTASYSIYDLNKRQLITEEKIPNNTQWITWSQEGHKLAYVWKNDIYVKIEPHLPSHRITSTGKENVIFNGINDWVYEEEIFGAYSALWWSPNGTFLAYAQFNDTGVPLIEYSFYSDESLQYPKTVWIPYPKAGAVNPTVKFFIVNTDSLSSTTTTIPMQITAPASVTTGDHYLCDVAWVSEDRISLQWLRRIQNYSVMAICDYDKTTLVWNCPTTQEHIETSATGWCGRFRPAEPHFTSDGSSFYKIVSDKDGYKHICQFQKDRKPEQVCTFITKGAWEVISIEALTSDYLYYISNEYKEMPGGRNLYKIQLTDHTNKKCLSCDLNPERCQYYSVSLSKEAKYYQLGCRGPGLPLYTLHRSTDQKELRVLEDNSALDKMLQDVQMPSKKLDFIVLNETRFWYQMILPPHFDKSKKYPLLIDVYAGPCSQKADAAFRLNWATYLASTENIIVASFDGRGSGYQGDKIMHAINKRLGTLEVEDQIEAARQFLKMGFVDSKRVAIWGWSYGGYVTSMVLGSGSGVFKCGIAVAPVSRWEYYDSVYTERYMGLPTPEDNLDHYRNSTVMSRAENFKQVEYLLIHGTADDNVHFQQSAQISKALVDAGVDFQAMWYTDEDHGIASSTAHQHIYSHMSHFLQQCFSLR
- ASSAY_TEXT: rat plasma DPP-IV inhibition assay
- STUDY_CONDITIONS: H-Glycine-Proline-AMC substrate, pH 7.8, room temperature, 20 min
pIC50: −log10 of the molar value. Structures can show the parent of a compound that is named as a salt.
READOUT_LABEL: pIC50

compound="N#C[C@@H]1CCCN1C(=O)CN[C@@H]1CCN(Cc2ccccc2)C1 [Ex. 17, dihydrochloride]" target_or_system="rat plasma DPP-IV (Rattus norvegicus, UniProt P14740)" readout_label=pIC50 recorded_value=6.92
compound="CC1(C)C2CCC(CNCC(=O)N3CCC[C@H]3C#N)C1C2 (single isomer, unassigned) [Ex. 25, monohydrochloride]" target_or_system="rat plasma DPP-IV (Rattus norvegicus, UniProt P14740)" readout_label=pIC50 recorded_value=6.85
compound="N#C[C@@H]1CCCN1C(=O)CNCCc1ccc(Cl)cc1Cl [Ex. 39, monohydrochloride]" target_or_system="rat plasma DPP-IV (Rattus norvegicus, UniProt P14740)" readout_label=pIC50 recorded_value=6.70
compound="N#C[C@@H]1CCCN1C(=O)CNCCc1ccccn1 [Ex. 30, dihydrochloride]" target_or_system="rat plasma DPP-IV (Rattus norvegicus, UniProt P14740)" readout_label=pIC50 recorded_value=7.05
compound="COc1ccc(CCNCC(=O)N2CCC[C@H]2C#N)cc1OC [Ex. 23, monohydrochloride]" target_or_system="rat plasma DPP-IV (Rattus norvegicus, UniProt P14740)" readout_label=pIC50 recorded_value=7.40
compound="N#C[C@@H]1CCCN1C(=O)CNC1CCN(Cc2ccccc2)CC1 [Ex. 66, monohydrochloride]" target_or_system="rat plasma DPP-IV (Rattus norvegicus, UniProt P14740)" readout_label=pIC50 recorded_value=7.40
compound="CN(CCCNCC(=O)N1CCC[C@H]1C#N)c1ccccc1 [Ex. 22, dihydrochloride]" target_or_system="rat plasma DPP-IV (Rattus norvegicus, UniProt P14740)" readout_label=pIC50 recorded_value=7.22
compound="COc1ccc(OC)c(CCNCC(=O)N2CCC[C@H]2C#N)c1 [Ex. 26, monohydrochloride]" target_or_system="rat plasma DPP-IV (Rattus norvegicus, UniProt P14740)" readout_label=pIC50 recorded_value=7.15

These measurements were taken from patent US6124305A.
